biological target: B. bovis hexose transporter 1 (BboHT1) (Babesia bovis); construct: full-length, 472 amino acid residues, Israel isolate, expressed in Xenopus laevis oocytes; experiment: inhibition of […]D-glucose uptake in Xenopus oocytes expressing BboHT1
Sequence (B0LKY8 entry or part of it): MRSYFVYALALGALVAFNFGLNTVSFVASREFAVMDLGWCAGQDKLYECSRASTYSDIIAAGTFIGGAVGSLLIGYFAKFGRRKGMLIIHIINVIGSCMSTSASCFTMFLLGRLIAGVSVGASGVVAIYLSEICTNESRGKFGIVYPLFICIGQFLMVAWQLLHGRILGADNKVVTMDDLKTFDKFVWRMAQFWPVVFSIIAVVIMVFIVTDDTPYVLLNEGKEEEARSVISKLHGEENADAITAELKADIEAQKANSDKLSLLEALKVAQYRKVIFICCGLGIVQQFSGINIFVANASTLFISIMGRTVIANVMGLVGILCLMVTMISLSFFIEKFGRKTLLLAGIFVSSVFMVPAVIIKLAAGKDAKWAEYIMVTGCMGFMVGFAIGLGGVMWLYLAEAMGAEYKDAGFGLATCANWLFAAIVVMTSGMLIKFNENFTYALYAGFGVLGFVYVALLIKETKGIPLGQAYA
property.label: Ki (µM)

>  <compound>
C=CCCCCCCCCCO[C@H]1[C@H](O)[C@@H](CO)OC(O)[C@@H]1O (stereo partly drawn) [compound 3361, 3-O-(undec-10-en)-yl-D-glucose]

>  <measured.number>
4.1

$$$$
